Data provenance is the supplement of paper PMC9112550.

- System: Escherichia coli TOP10
- test_summary: shrunken log2 fold change of peptide-encoding DNA abundance (4.5 h post-induction vs induction); higher = less antimicrobial activity (less host growth inhibition)
- experimental_context: time post-induction: 4.5 h; library: site-saturation at positions 5, 18, 19, 20
Please mark fulfilled if the recorded shrunken log2 fold change is equal to or greater than 0.09, and not fulfilled if it falls below.

In [3]: df
Out[3]:
           sequence_record     experimental_target    label_value
0  RRIRMRPPRLPRPRPRPKQNPRP  Escherichia coli TOP10      fulfilled
1  RRIRARPPRLPRPRPRPAMDPRP  Escherichia coli TOP10      fulfilled
2  RRIRRRPPRLPRPRPRPNEWPRP  Escherichia coli TOP10  not fulfilled
3  RRIRKRPPRLPRPRPRPIDIPRP  Escherichia coli TOP10  not fulfilled

# check: shrunken log2 fold change of "RRIRFRPPRLPRPRPRPTKWPRP" is greater than or equal to 0.09
fulfilled

Decide: is the reported value of shrunken log2 fold change for "RRIRMRPPRLPRPRPRPWNRPRP" equal to or greater than 0.09?
not fulfilled

Given the entry "RRIRCRPPRLPRPRPRPRERPRP" , answer whether its shrunken log2 fold change meets or surpasses 0.09.
fulfilled

Would you say "RRIRWRPPRLPRPRPRPDNRPRP" shows shrunken log2 fold change at minimum 0.09?
not fulfilled

Does shrunken log2 fold change meet or surpass 0.09 for "RRIRPRPPRLPRPRPRPHLPPRP" ?
not fulfilled

Check if shrunken log2 fold change >= 0.09 (inclusive). Item: "RRIRDRPPRLPRPRPRPFNIPRP"
not fulfilled

Check the entry "RRIRTRPPRLPRPRPRPKSTPRP" : does shrunken log2 fold change equal or exceed 0.09?
not fulfilled

For this sequence, is measured shrunken log2 fold change 0.09 or higher? "RRIRHRPPRLPRPRPRPGRIPRP"
fulfilled

// inclusive: shrunken log2 fold change at least 0.09? input: "RRIRLRPPRLPRPRPRPPWRPRP"
fulfilled

Determine whether measured shrunken log2 fold change meets or exceeds 0.09 for "RRIRWRPPRLPRPRPRPWGDPRP"
not fulfilled

Decide: is the reported value of shrunken log2 fold change for "RRIRLRPPRLPRPRPRPSGQPRP" equal to or greater than 0.09?
not fulfilled

Dear colleague, could you confirm whether "RRIRRRPPRLPRPRPRPIYRPRP" has shrunken log2 fold change at or above 0.09?
not fulfilled

# bool: shrunken log2 fold change of "RRIRNRPPRLPRPRPRPGNAPRP" >= 0.09
not fulfilled

# check: shrunken log2 fold change of "RRIRVRPPRLPRPRPRPPYMPRP" is greater than or equal to 0.09
not fulfilled

* * *

- Test system: Escherichia coli TOP10
- test_summary: shrunken log2 fold change of peptide-encoding DNA abundance (4.5 h post-induction vs induction); higher = less antimicrobial activity (less host growth inhibition)
- experimental_context: time post-induction: 4.5 h; library: site-saturation at positions 5, 18, 19, 20
observation_type: shrunken log2 fold change

Some sequences with recorded shrunken log2 fold change:
>>> df
           sequence_record  result_value
0  RRIRRRPPRLPRPRPRPFAAPRP          0.98
1  RRIRARPPRLPRPRPRPPAQPRP          1.02

We now examine a further sequence.
Report shrunken log2 fold change for "RRIRFRPPRLPRPRPRPIMNPRP"
-0.515

* * *

- Tested on: Escherichia coli TOP10
- test_summary: shrunken log2 fold change of peptide-encoding DNA abundance (4.5 h post-induction vs induction); higher = less antimicrobial activity (less host growth inhibition)
- experimental_context: time post-induction: 4.5 h; library: site-saturation at positions 5, 18, 19, 20
# shrunken log2 fold change per entry
No unit in the answer, only the number.

Example entries and their recorded answers appear below.
>>> df
           sequence_record     experimental_target  result_value
0  RRIRFRPPRLPRPRPRPSDDPRP  Escherichia coli TOP10        -0.106
1  RRIRCRPPRLPRPRPRPSYSPRP  Escherichia coli TOP10         -1.04
2  RRIRWRPPRLPRPRPRPPMRPRP  Escherichia coli TOP10          1.18
3  RRIRKRPPRLPRPRPRPHEDPRP  Escherichia coli TOP10         0.139
4  RRIRRRPPRLPRPRPRPYLGPRP  Escherichia coli TOP10        -0.276
5  RRIRDRPPRLPRPRPRPFHFPRP  Escherichia coli TOP10        -0.208

Next item in the queue.
Identify measured shrunken log2 fold change corresponding to "RRIRRRPPRLPRPRPRPWLRPRP"
-0.103

* * *

- System: Escherichia coli TOP10
- test_summary: shrunken log2 fold change of peptide-encoding DNA abundance (4.5 h post-induction vs induction); higher = less antimicrobial activity (less host growth inhibition)
- experimental_context: time post-induction: 4.5 h; library: site-saturation at positions 5, 18, 19, 20
observation_type: shrunken log2 fold change
Answer with a number only.

Solved cases (3 shown):
>>> df
           sequence_record  result_value
0  RRIRMRPPRLPRPRPRPRCWPRP         0.666
1  RRIRVRPPRLPRPRPRPMMNPRP         -0.28
2  RRIRPRPPRLPRPRPRPNADPRP        0.0878

Report its shrunken log2 fold change with Escherichia coli TOP10 as the test system: "RRIRTRPPRLPRPRPRPPHEPRP"
0.373

Give shrunken log2 fold change only, for "RRIRARPPRLPRPRPRPPMTPRP" , using Escherichia coli TOP10 data.
0.88

Check Escherichia coli TOP10 data and give shrunken log2 fold change for "RRIRPRPPRLPRPRPRPDTHPRP" .
-0.119

* * *

Here, each record is paired with measured shrunken log2 fold change data.
- Test system: Escherichia coli TOP10
- test_summary: shrunken log2 fold change of peptide-encoding DNA abundance (4.5 h post-induction vs induction); higher = less antimicrobial activity (less host growth inhibition)
- experimental_context: time post-induction: 4.5 h; library: site-saturation at positions 5, 18, 19, 20
Reply with the value as a number alone.

>>> print(df.to_string())
           sequence_record           observation_type  result_value
0  RRIRIRPPRLPRPRPRPFWAPRP  shrunken log2 fold change       -0.0374
1  RRIRHRPPRLPRPRPRPHAAPRP  shrunken log2 fold change         0.292
2  RRIRKRPPRLPRPRPRPRLIPRP  shrunken log2 fold change         0.234
3  RRIRGRPPRLPRPRPRPMWHPRP  shrunken log2 fold change         0.441

Determine from records and report shrunken log2 fold change for "RRIRFRPPRLPRPRPRPHCWPRP"
-0.0304

Identify shrunken log2 fold change associated with the sequence "RRIRIRPPRLPRPRPRPAKPPRP"
0.297

Item "RRIRYRPPRLPRPRPRPPYHPRP" : provide shrunken log2 fold change
-0.82

Tell me measured shrunken log2 fold change for "RRIRKRPPRLPRPRPRPFFAPRP" please.
0.645

Give a short answer stating reported shrunken log2 fold change for "RRIRLRPPRLPRPRPRPWWCPRP" .
-0.0878

* * *

In this section we review reported shrunken log2 fold change values for a set of sequences.
- Test system: Escherichia coli TOP10
- test_summary: shrunken log2 fold change of peptide-encoding DNA abundance (4.5 h post-induction vs induction); higher = less antimicrobial activity (less host growth inhibition)
- experimental_context: time post-induction: 4.5 h; library: site-saturation at positions 5, 18, 19, 20
// return just the number, without any unit appended

>>> df
           sequence_record     experimental_target  result_value
0  RRIRIRPPRLPRPRPRPISYPRP  Escherichia coli TOP10        -0.197
1  RRIRGRPPRLPRPRPRPHNNPRP  Escherichia coli TOP10        -0.215
2  RRIRHRPPRLPRPRPRPGWTPRP  Escherichia coli TOP10      -0.00563
3  RRIRQRPPRLPRPRPRPEIQPRP  Escherichia coli TOP10        0.0108
4  RRIRYRPPRLPRPRPRPSHFPRP  Escherichia coli TOP10        -0.411

Report shrunken log2 fold change under test system Escherichia coli TOP10 for "RRIRPRPPRLPRPRPRPKKIPRP" .
0.0064

Give shrunken log2 fold change; test system Escherichia coli TOP10; sequence "RRIRVRPPRLPRPRPRPPAGPRP"
0.522

Param request: shrunken log2 fold change | system Escherichia coli TOP10 | item "RRIRKRPPRLPRPRPRPDMNPRP"
0.375

State shrunken log2 fold change (Escherichia coli TOP10) of "RRIRYRPPRLPRPRPRPRNFPRP" .
-0.358

// output shrunken log2 fold change; input "RRIRPRPPRLPRPRPRPIEPPRP" ; system Escherichia coli TOP10
0.109

Please respond with reported shrunken log2 fold change (system Escherichia coli TOP10) for "RRIRFRPPRLPRPRPRPCTDPRP" .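 Note: peptides expressed intracellularly from a pBAD plasmid library in pooled LB shake-flask culture, induced with 0.3% L-arabinose, DNA abundance read by NGS, three biological replicates, DESeq2 with apeglm shrinkage.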
-0.183

Give the observed shrunken log2 fold change of "RRIRRRPPRLPRPRPRPMQAPRP" for Escherichia coli TOP10.
1.13
